- method-summary: Optical properties: excitation/emission maxima and absolute fluorescence quantum yield
- Assay type: physicochemical
- measurement-context: Seronorm control serum
Provide the recorded Φ (absolute fluorescence quantum yield) for the entries that follow.
I'd appreciate it if you included the unit after the number.

These solved cases illustrate the format of a correct answer.
| compound | Φ (absolute fluorescence quantum yield) |
| --- | --- |
| CC(CC[N+]1=C(/C=C/C=C/C=C/C=C2/N(CCCCCC(=O)O)c3ccc(C(=O)NCC(O)C(O)C(O)C(O)CO)cc3C2(C)C)C(C)(C)c2cc(C(=O)NCC(O)C(O)C(O)C(O)CO)ccc21)S(=O)(=O)[O-] (stereo not shown) | 13.4% |
| CC(CC[N+]1=C(/C=C/C=C/C=C/C=C2/N(CCCCCC(=O)NCCCC[C@@H]3NC(=O)C(Cc4ccccc4)NC(=O)[C@H](CC(=O)O)NC(=O)CNC(=O)[C@H](CCCNC(=N)N)NC3=O)c3ccc(C(=O)NCC(O)C(O)C(O)C(O)CO)cc3C2(C)C)C(C)(C)c2cc(C(=O)NCC(O)C(O)C(O)C(O)CO)ccc21)S(=O)(=O)[O-] (stereo partly shown) | 13.0% |
| CN1/C(=C/C=C/C=C/C2=[N+](CCCCCC(=O)O)c3ccc(S(=O)(=O)[O-])cc3C2(C)C)C(C)(C)c2cc(S(=O)(=O)O)ccc21 [Sulfo-Cy5, reference compound] | 35.6% |
| CC1(C)C(/C=C/C=C/C=C2/N(CCCCCC(=O)O)c3ccc(C(=O)NC(CO)(CO)CO)cc3C2(C)C)=[N+](CCCCS(=O)(=O)[O-])c2ccc(C(=O)NC(CO)(CO)CO)cc21 | 35.1% |
| CC1(C)C(/C=C/C=C/C=C/C=C2\N(CCCCS(=O)(=O)O)c3ccc4ccccc4c3C2(C)C)=[N+](CCCCS(=O)(=O)[O-])c2ccc3ccccc3c21 [ICG, Indocyanine Green, reference compound] | 7.8% |

// input: 2 compounds below; output: Φ (absolute fluorescence quantum yield) for each
1. CC1(C)C(/C=C/C=C/C=C2/N(CCCCCC(=O)O)c3ccc(C(=O)NCC(O)C(O)C(O)C(O)CO)cc3C2(C)C)=[N+](CCCCS(=O)(=O)[O-])c2ccc(C(=O)NCC(O)C(O)C(O)C(O)CO)cc21 (stereo not shown)
2. CC(CC[N+]1=C(/C=C/C=C/C=C/C=C2/N(CCCCCC(=O)NCC3C[C@@H]4CC[C@H]5C(=O)N[C@@H](CCCNC(=N)N)C(=O)NCC(=O)N[C@@H](CC(=O)O)C(=O)N[C@H]3C(=O)N45)c3ccc(C(=O)NCC(O)C(O)C(O)C(O)CO)cc3C2(C)C)C(C)(C)c2cc(C(=O)NCC(O)C(O)C(O)C(O)CO)ccc21)S(=O)(=O)[O-] (stereo partly shown)

1. 35.9%
2. 11.7%

* * *

- method-summary: Optical properties: excitation/emission maxima and absolute fluorescence quantum yield
- Format: physicochemical
- measurement-context: PBS pH 7.4
reported-property: Φ (absolute fluorescence quantum yield) (%)
Give bare numbers, in %.

These solved cases illustrate the format of a correct answer.
| compound | recorded-number |
| --- | --- |
| CN1/C(=C/C=C/C=C/C2=[N+](CCCCCC(=O)O)c3ccc(S(=O)(=O)[O-])cc3C2(C)C)C(C)(C)c2cc(S(=O)(=O)O)ccc21 [Sulfo-Cy5, reference compound] | 27.0 |
| CC(CC[N+]1=C(/C=C/C=C/C=C/C=C2/N(CCCCCC(=O)NCCCC[C@@H]3NC(=O)C(Cc4ccccc4)NC(=O)[C@H](CC(=O)O)NC(=O)CNC(=O)[C@H](CCCNC(=N)N)NC3=O)c3ccc(C(=O)NCC(O)C(O)C(O)C(O)CO)cc3C2(C)C)C(C)(C)c2cc(C(=O)NCC(O)C(O)C(O)C(O)CO)ccc21)S(=O)(=O)[O-] (stereo partly shown) [Compound 1] | 9.8 |
| CC(CC[N+]1=C(/C=C/C=C/C=C/C=C2/N(CCCCCC(=O)NCC3C[C@@H]4CC[C@H]5C(=O)N[C@@H](CCCNC(=N)N)C(=O)NCC(=O)N[C@@H](CC(=O)O)C(=O)N[C@H]3C(=O)N45)c3ccc(C(=O)NCC(O)C(O)C(O)C(O)CO)cc3C2(C)C)C(C)(C)c2cc(C(=O)NCC(O)C(O)C(O)C(O)CO)ccc21)S(=O)(=O)[O-] (stereo partly shown) [Compound 3] | 10.6 |

compound CC(CC[N+]1=C(/C=C/C=C/C=C/C=C2/N(CCCCCC(=O)O)c3ccc(C(=O)NCC(O)C(O)C(O)C(O)CO)cc3C2(C)C)C(C)(C)c2cc(C(=O)NCC(O)C(O)C(O)C(O)CO)ccc21)S(=O)(=O)[O-] (stereo not shown) [Compound 4] , Φ (absolute fluorescence quantum yield) observed: 8.9
